System: SF-295 CNS
protocolSummary: NCI tumour cell line growth inhibition, 48 h
Collected TGI values appear next to each entry.

# annotated cases, reported TGI shown
- compound: "COc1cc(NC(=O)Nc2cnc(Nc3ccc(N4CCOCC4)cc3)nc2Oc2cccc(OC)c2)cc(OC)c1"
  targetOrTestSystem: "SF-295 CNS"
  TGI: "3.61 µM"
- compound: "CCN(CC)CCN(C(=O)C(C)(C)C)c1ccccc1N"
  targetOrTestSystem: "SF-295 CNS"
  TGI: "> 100 µM"
- compound: "O=[N+]([O-])c1ccc(C(Nc2ccccc2)c2ccc3cccnc3c2O)cc1 (stereo unspecified)"
  targetOrTestSystem: "SF-295 CNS"
  TGI: "> 100 µM"
- compound: "NS(=O)(=O)c1ccc(NNc2c3ccccc3nc3c(C(=O)Nc4ccc(S(=O)(=O)Nc5ncccn5)cc4)cccc23)cc1"
  targetOrTestSystem: "SF-295 CNS"
  TGI: "> 25 µM"
- compound: "CN(C)C(=S)Oc1ccc2ccc(=O)oc2c1"
  targetOrTestSystem: "SF-295 CNS"
  TGI: "> 100 µM"

Now look at this one.
Inquiry: Item: C/C(Nc1ccc(Cl)cc1Cl)=C1/CCOC1=O Test system: SF-295 CNS Read-out: TGI Value: ?
Reply text: 54 µM

----------
Tested on: KM20L2 colon
protocolSummary: NCI tumour cell line growth inhibition, 48 h
property: TGI

# annotated cases, reported TGI shown
- compound: "COc1ccc(OC)c2c3c(ccc12)C(c1ccccc1)OC3=O (stereo not drawn)"
  TGI: "> 100 µM"
- compound: "COc1ccc(CCc2cc(OC)c(OC)c(OC)c2)cc1"
  TGI: "0.049 µM"

Inquiry: Item: N[C@@H]1CCCC[C@@H]1N.O=P([O-])([O-])CN(CP(=O)([O-])[O-])CP(=O)([O-])[O-].[Pt+2] Test system: KM20L2 colon Read-out: TGI Value: ?
Reply text: > 100 µM

----------
Collected TGI values appear next to each entry.
Tested on: KM12 colon
protocolSummary: NCI tumour cell line growth inhibition, 48 h

# annotated cases, reported TGI shown
- compound: "COc1ccc2nc3n(c2c1)CCc1cc(OC)c(OC)cc1-3"
  targetOrTestSystem: "KM12 colon"
  TGI: "> 100 µM"
- compound: "O=C(Nc1cccc(NC(=O)c2cc(=O)c3ccccc3o2)n1)c1cc(=O)c2ccccc2o1"
  targetOrTestSystem: "KM12 colon"
  TGI: "> 100 µM"
- compound: "Cc1nc(-n2nc(-c3ccccc3)cc2-c2ccccc2)sc1C(/C=C/c1ccc([N+](=O)[O-])cc1)=N/NC(=O)c1ccncc1"
  targetOrTestSystem: "KM12 colon"
  TGI: "22.4 µM"
- compound: "COC(OC)c1cc2c(cc1C(=O)[C@@]13CCC[C@@H]1NC(=O)O3)OCO2"
  targetOrTestSystem: "KM12 colon"
  TGI: "> 100 µM"
- compound: "CCOP(=O)(OCC)C(C)(CC)NC(=O)C(C(F)(F)F)C(F)(F)F (configuration not stated)"
  targetOrTestSystem: "KM12 colon"
  TGI: "> 100 µM"

Inquiry: Item: COc1c(C)c(C/C=C(\C)CC/C=C(\C)CCC=C(C)C)c(OC)c(OC)c1OC Test system: KM12 colon Read-out: TGI Value: ?
Reply text: > 100 µM

Inquiry: Do the same for CCOc1ccc(C(CN2CCOCC2)C(C)=O)cc1OC (configuration not stated) please
Reply text: 29 µM

Inquiry: Do the same for CC(NC(=O)c1ccccc1)(C(=O)O)C(=O)O please
Reply text: > 100 µM

Inquiry: Do the same for Cn1c2ccccc2n2c3ncccc3c(=S)c(C#N)c12 please
Reply text: > 100 µM

Inquiry: Do the same for FC1OC2OC1C(OCc1ccccc1)C(OCc1ccccc1)C2OCc1ccccc1 (configuration not stated) please
Reply text: > 100 µM

Inquiry: Do the same for COc1cc([N+](=O)[O-])c2ncccc2c1[N+](=O)[O-] please
Reply text: 10.5 µM

Inquiry: Do the same for CC(=O)Oc1ccc2c(c1)CC[C@@H]1C2CC[C@]2(C)C(=O)NC(=O)CC12 (some centres not stated) please
Reply text: > 100 µM

----------
Collected TGI values appear next to each entry.
Test system: 786-0 renal
protocolSummary: NCI tumour cell line growth inhibition, 48 h

# annotated cases, reported TGI shown
- molecule: "COc1cc2cc3c4c(cc(OC)c(OC)c4c2cc1OC)CCN3C(=O)CCC(=O)NCCCN(C)C"
  targetOrTestSystem: "786-0 renal"
  TGI: "> 100 µM"
- molecule: "Cn1c2ccccc2n2c3ncccc3c(=S)c(C#N)c12"
  targetOrTestSystem: "786-0 renal"
  TGI: "> 100 µM"
- molecule: "Cc1c(C(=O)CSc2nc3ccccc3[nH]2)c(=O)n(-c2ccccc2)n1C"
  targetOrTestSystem: "786-0 renal"
  TGI: "> 100 µM"

Inquiry: Item: C/C=C1\C(=O)OC2CCN3CCC(COC(=O)C(C)(O)C(C)C1O)C23 (configuration not stated) Test system: 786-0 renal Read-out: TGI Value: ?
Reply text: > 100 µM

Inquiry: Do the same for COc1ccc(C(O)CC(O)(C(F)(F)F)C(F)(F)F)cc1 (configuration not stated) please
Reply text: > 100 µM

Inquiry: Do the same for COC(=O)CCCC(=O)NC1=C(NCc2ccccc2)C(=O)c2ccccc2C1=O please
Reply text: > 100 µM

Inquiry: Do the same for CC1CC2(C)CC(=O)C1C1C(=O)N(CCN3CCCCC3)C(=O)C12 (configuration not stated) please
Reply text: > 100 µM

Inquiry: Do the same for CC1CC/C(=C\c2ccc(Cl)cc2)c2nc(N)c(C#N)c(-c3ccc(Cl)cc3)c21 (configuration not stated) please
Reply text: > 100 µM

Inquiry: Do the same for CCOC(=O)C1COc2cc(-c3cc(=O)c4ccccc4o3)ccc2O1 (configuration not stated) please
Reply text: > 100 µM

----------
System: MALME-3M melanoma
protocolSummary: NCI tumour cell line growth inhibition, 48 h
property: TGI (µM)
Unit µM implied. Number only.

- compound: "COc1ccc2nc3ccccc3c(NCCCCN(C)CCCl)c2c1"
  measurementUnits: "µM"
  reading: 1.06
- compound: "CC(C)C1(O)C(=O)N(c2c(F)c(F)c(F)c(F)c2F)C(=S)N1CCSc1ccccc1 (stereo not given)"
  measurementUnits: "µM"
  reading: 31.6
- compound: "Cc1ccc(C(C)C)cc1NC(=O)Nc1ccc([N+](=O)[O-])cc1"
  measurementUnits: "µM"
  reading: 6.48
- compound: "COc1cc2c(c(OC)c1OC)-c1ccc(SC)c(=O)cc1[C@@H](NC(=O)c1ccc(Cl)cc1)CC2"
  measurementUnits: "µM"
  reading: 5.03
- compound: "CC(=O)/C(=C\\c1ccc(Cl)c(Cl)c1)C(=O)C(C)CN(C)C (stereo not given)"
  measurementUnits: "µM"
  reading: 21.9
- compound: "CC1OC(OC2CCC3(C=O)C4CCC5(C)C(C6=CC(=O)OC6)CCC5(O)C4CCC3(O)C2)C(O)C(O)C1O (stereo not given)"
  measurementUnits: "µM"
  reading: "8.23e-05"

Now look at this one.
Inquiry: I would be grateful if you could share the reported TGI for C/C(=N\Nc1nc2ccccc2[nH]1)c1cc2ccccc2cn1 .
Reply text: 0.664

----------
System: NCI-H522 lung
protocolSummary: NCI tumour cell line growth inhibition, 48 h
property: TGI

- smilesRepresentation: "Nc1[nH]c(=O)ncc1CO"
  property: "TGI"
  reading: "> 100 µM"
- smilesRepresentation: "COc1cc(/C=C(\\C#N)C(N)=C(C#N)C#N)cc(O)c1O"
  property: "TGI"
  reading: "> 100 µM"

Inquiry: I would be grateful if you could share the reported TGI for O=c1cc(NCc2ccncc2)[nH]c(=O)[nH]1 .
Reply text: > 100 µM

Inquiry: Do the same for COc1ccc(S(=O)(=O)N(C)CC(=O)O)cc1 please
Reply text: > 100 µM

Inquiry: Do the same for O=C(Nc1ccccc1C(=O)N/N=C(\c1ccccc1)c1ccccn1)c1ccc(F)cc1 please
Reply text: > 28.6 µM

----------
Collected TGI values appear next to each entry.
Test system: SNB-19 CNS
protocolSummary: NCI tumour cell line growth inhibition, 48 h

- compound: "CC/C=C\\C/C=C\\C[C@H](O)C/C=C1/C(=O)C=C[C@@H]1C/C=C\\CCCC(=O)OC"
  targetOrTestSystem: "SNB-19 CNS"
  TGI: "13.7 µM"
- compound: "C=CC1CN2CCC1CC2C(O)c1ccnc2ccccc12 (stereo not given)"
  targetOrTestSystem: "SNB-19 CNS"
  TGI: "> 100 µM"
- compound: "S=C(NCc1ccccc1)N/N=C/c1ccccn1"
  targetOrTestSystem: "SNB-19 CNS"
  TGI: "> 100 µM"
- compound: "COc1ccccc1CNCCCCCCCCCCCCN1C(=O)c2ccc3c4c(ccc(c24)C1=O)C(=O)N(CCCCCCCCCCCCNCc1ccccc1OC)C3=O"
  targetOrTestSystem: "SNB-19 CNS"
  TGI: "> 50 µM"
- compound: "Cc1c(C(=O)CSc2nc3ccccc3[nH]2)c(=O)n(-c2ccccc2)n1C"
  targetOrTestSystem: "SNB-19 CNS"
  TGI: "> 100 µM"
- compound: "CCOP(=O)(OCC)/C(C#N)=C/c1cccn1Cc1ccccc1"
  targetOrTestSystem: "SNB-19 CNS"
  TGI: "> 100 µM"
- compound: "COc1cccc(NC(=O)C(=O)C(C(C)=O)c2nc3ccc(Cl)cc3[nH]c2=O)c1 (stereo not given)"
  targetOrTestSystem: "SNB-19 CNS"
  TGI: "> 100 µM"
- compound: "CC(=O)C1C(=O)N(C(C)C)C[C@@H]2CCC(=O)C[C@H]12 (stereo not given in full)"
  targetOrTestSystem: "SNB-19 CNS"
  TGI: "> 100 µM"
- compound: "CCCNc1ncnc2[nH]ncc12"
  targetOrTestSystem: "SNB-19 CNS"
  TGI: "> 100 µM"
- compound: "O=c1cc(-c2ccccn2)[nH]c2ccc(Cl)cc12"
  targetOrTestSystem: "SNB-19 CNS"
  TGI: "> 100 µM"

Now look at this one.
Inquiry: I would be grateful if you could share the reported TGI for O=C(Nc1ccccc1C(=O)N/N=C(\c1ccccc1)c1ccccn1)c1ccc(F)cc1 .
Reply text: > 100 µM
